tested on: rgRSV224 virus; experiment: Antiviral activity: rgRSV224 (GFP) replication in HeLa cells; type: cell-based, respiratory syncytial virus (RSV); settings: human respiratory syncytial virus, HeLa, 72 h, read-out: RSV HELA EC50 (μM), rgRSV224 virus (MOI=1), HeLa cells, GFP expression three days post-virus exposure
PARAMETER: EC50 (µM)
Numbers only, in µM.

// known answers, use as guide
[
  {
    "MOLECULE": "C[C@@H]1c2ccccc2CCN1C(=O)c1cc(C2CC2)n2nc(-c3ccc(N4CC[C@H](C(C)(C)C(N)=O)C4)cc3F)cc2n1 (single isomer, unassigned) [Compound 27]",
    "SYSTEM": "rgRSV224 virus",
    "PARAMETER": "EC50",
    "MEASUREMENT": 0.089
  },
  {
    "MOLECULE": "C[C@@H]1c2ccccc2CCN1C(=O)c1cc(C2CC2)n2nc(-c3ccc(N4CC[C@H](c5noc(=O)[nH]5)C4)cc3F)cc2n1 [Compound 4]",
    "SYSTEM": "rgRSV224 virus",
    "PARAMETER": "EC50",
    "MEASUREMENT": 0.049
  },
  {
    "MOLECULE": "C[C@@H]1c2ccccc2CCN1C(=O)c1cc(C2CC2)n2nc(-c3ccc(N4C[C@@H](O)[C@@H](O)C4)cc3F)cc2n1 [Compound 95]",
    "SYSTEM": "rgRSV224 virus",
    "PARAMETER": "EC50",
    "MEASUREMENT": 0.018
  },
  {
    "MOLECULE": "C[C@@H]1c2ccsc2CCN1C(=O)c1cc(C2CC2)n2nc(-c3ccc(N4CC[C@@](C)(C(N)=O)C4)cc3F)cc2n1 (single isomer, unassigned) [Compound 44]",
    "SYSTEM": "rgRSV224 virus",
    "PARAMETER": "EC50",
    "MEASUREMENT": 0.019
  },
  {
    "MOLECULE": "C[C@@H]1c2ccccc2CCN1C(=O)c1cc(C2CC2)n2nc(-c3ccc(N4CC(CC(N)=O)C4)cc3F)cc2n1 [Compound 65]",
    "SYSTEM": "rgRSV224 virus",
    "PARAMETER": "EC50",
    "MEASUREMENT": 0.048
  }
]

For the 7 molecules below, give their EC50 values.
1. C[C@@H]1c2ccccc2CCN1C(=O)c1cc(-c2ccc(C(F)(F)F)cc2)n2nc(-c3ccc(N4CC[C@H](C(N)=O)C4)cc3F)cc2n1 [Compound 61]
2. C[C@@H]1c2ccccc2CCN1C(=O)c1cc(C2CC2)n2nc(-c3ccc(N4CC[C@H](C(=O)NS(C)(=O)=O)C4)nc3F)cc2n1 [Compound 51]
3. C[C@@H]1c2ccccc2CCN1C(=O)c1cc(-c2ccccn2)n2nc(-c3ccc(N4CC[C@H](C(N)=O)C4)cc3F)cc2n1 [Compound 84]
4. C[C@@H]1c2ccsc2CCN1C(=O)c1cc(C2CC2)n2nc(-c3ccc(N4CC[C@H](C(=O)NS(C)(=O)=O)C4)cc3F)cc2n1 (single isomer, unassigned) [Compound 41]
5. CNC(=O)[C@H]1CCN(c2cc(F)c(-c3cc4nc(C(=O)N5CCc6ccccc6[C@H]5C)cc(C5CC5)n4n3)cn2)C1 [Compound 53]
6. C[C@@H]1c2ccccc2CCN1C(=O)c1cc(C2CC2)n2nc(-c3cnc(N4CC[C@H](C(N)=O)C4)cc3F)cc2n1 [Compound 52]
7. CC(=O)NS(=O)(=O)C1CCN(c2ccc(-c3cc4nc(C(=O)N5CCc6ccccc6[C@H]5C)cc(C5CC5)n4n3)c(F)c2)C1 (stereo partly drawn) [Compound 20]

A)
1. 0.193
2. 0.131
3. 0.006
4. 0.036
5. 0.035
6. 0.014
7. 0.052
